# EC50 Human APJ Receptor values compiled below
# test.target: T1, human APJ receptor (human, UniProt P35414 1-380)
# T1 sequence (looked up): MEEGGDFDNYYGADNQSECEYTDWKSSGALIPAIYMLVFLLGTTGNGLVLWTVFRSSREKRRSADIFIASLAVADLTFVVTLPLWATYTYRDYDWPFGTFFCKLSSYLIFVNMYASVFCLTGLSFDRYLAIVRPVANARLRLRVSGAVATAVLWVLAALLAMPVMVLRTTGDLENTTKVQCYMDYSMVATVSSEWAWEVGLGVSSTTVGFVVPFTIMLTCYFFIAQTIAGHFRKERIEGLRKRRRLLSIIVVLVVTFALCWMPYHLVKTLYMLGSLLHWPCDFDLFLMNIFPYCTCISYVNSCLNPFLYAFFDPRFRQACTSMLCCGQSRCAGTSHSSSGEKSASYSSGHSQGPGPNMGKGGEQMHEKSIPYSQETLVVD
# method.notes: cell-based or functional assay
Starred links: 1 amine or outer side, 2 acyl side, 3 side chain; linkers in the order of their positions; H or OH if unused. Non-standard residues stand in square brackets, D forms with d. Primed or numbered codes have the meaning given here. *: point of attachment. AC4Abu = α-carboxy-4-aminobutyric acid, O=C(C(CCN[*:1])C(=O)[*:3])[*:2]; dBip = N[C@H](Cc1ccc(-c2ccccc2)cc1)C(=O)O; Oic = O=C(O)[C@@H]1C[C@@H]2CCCC[C@@H]2N1; Phe(4-Cl) = N[C@@H](Cc1ccc(Cl)cc1)C(=O)O; Phe(4-I) = N[C@@H](Cc1ccc(I)cc1)C(=O)O; γGlu = O=C(O)[C@H](CCC(=O)[*:2])N[*:1]; d(β3hF) = N[C@@H](CC(=O)O)Cc1ccccc1; NMeR = CN[C@@H](CCCNC(=N)N)C(=O)O; Palmitoyl = CCCCCCCCCCCCCCCC(=O)*; hArg = N=C(N)NCCCC[C@H](N)C(=O)O; αMeF = C[C@](N)(Cc1ccccc1)C(=O)O; dTic = O=C(O)[C@H]1Cc2ccccc2CN1; Cha = N[C@@H](CC1CCCCC1)C(=O)O; NMeL = CN[C@@H](CC(C)C)C(=O)O; αMeL = CC(C)C[C@](C)(N)C(=O)O; AC4Abu″ = not defined here; β3hP = O=C(O)C[C@@H]1CCCN1; Pip = O=C(O)[C@@H]1CCCCN1; αMeS = C[C@](N)(CO)C(=O)O; Nle = CCCC[C@H](N)C(=O)O; Pip′ = not defined here; Hexanoyl = CCCCCC(=O)*; AEEA = NCCOCCOCC(=O)O; Nip = nipecotic acid; BLeu = β-leucine

binder: Palmitoyl-[AC4Abu][AEEA][AEEA][dQ]RP[NMeR][Cha]SHKG[Oic][Nle][d(β3hF)]-OH (SMILES CCCCCCCCCCCCCCCC(=O)NCCC(C(=O)O)C(=O)NCCOCCOCC(=O)NCCOCCOCC(=O)N[C@H](CCC(N)=O)C(=O)N[C@@H](CCCNC(=N)N)C(=O)N1CCC[C@H]1C(=O)N(C)[C@@H](CCCNC(=N)N)C(=O)N[C@@H](CC1CCCCC1)C(=O)N[C@@H](CO)C(=O)N[C@@H](Cc1c[nH]cn1)C(=O)N[C@@H](CCCCN)C(=O)NCC(=O)N1[C@H](C(=O)N[C@@H](CCCC)C(=O)N[C@@H](CC(=O)O)Cc2ccccc2)C[C@@H]2CCCC[C@@H]21) [SEQ ID NO: 573]
EC50 Human APJ Receptor (nM): 2.17
--
binder: Palmitoyl-[γGlu][AEEA][AEEA][dQ]RP[NMeR][Cha][BLeu]HKG[Oic][Nle][β3hP][d(β3hF)]-OH [SEQ ID NO: 615]
EC50 Human APJ Receptor (nM): 9.42
--
binder: QRPRLSHKGPXPF ({H2}[MerPr](10K mPEG acetamide)Q[hArg]P[NMehArg]LSHKGP[Nle]P[4-Cl-F]{COOH}) [SEQ ID NO: 113]
EC50 Human APJ Receptor (nM): 12.1
--
binder: Palmitoyl-[AC4Abu″][AEEA][AEEA][dQ]RP[NMeR][Cha][αMeS]HKG[Oic][Nle][β3hP][d(β3hF)]-OH (reading uncertain) [SEQ ID NO: 642]
EC50 Human APJ Receptor (nM): 0.332
--
binder: Palmitoyl-[AC4Abu][AEEA][AEEA][dQ]RP[NMeR][Cha]SHKG[Oic][Nle][Nip][Phe(4-Cl)]-OH [SEQ ID NO: 586]
EC50 Human APJ Receptor (nM): 7.96
--
binder: Ac-RQRPRLSHKGP[Nle]P[dBip]-OH (SMILES CCCC[C@H](NC(=O)[C@@H]1CCCN1C(=O)CNC(=O)[C@H](CCCCN)NC(=O)[C@H](Cc1c[nH]cn1)NC(=O)[C@H](CO)NC(=O)[C@H](CC(C)C)NC(=O)[C@H](CCCNC(=N)N)NC(=O)[C@@H]1CCCN1C(=O)[C@H](CCCNC(=N)N)NC(=O)[C@H](CCC(N)=O)NC(=O)[C@H](CCCNC(=N)N)NC(C)=O)C(=O)N1CCC[C@H]1C(=O)N[C@H](Cc1ccc(-c2ccccc2)cc1)C(=O)O) [SEQ ID NO: 62]
EC50 Human APJ Receptor (nM): 0.303
--
binder: QRPRLSHKGPXPF ({H2}[MerPr](10K mPEG acetamide)QRP[hArg][aMeLeu]SHKGP[Nle]P[4-Cl-F]{COOH}) [SEQ ID NO: 117]
EC50 Human APJ Receptor (nM): 19.7
--
binder: QRPRLSHKGPXPF ({H2}[MerPr](10K mPEG acetamide)QR[aMePro][hArg][aMeLeu]SHKGP[Nle]P[4-Cl-F]{COOH}) [SEQ ID NO: 114]
EC50 Human APJ Receptor (nM): 0.848
--
binder: Palmitoyl-[γGlu][AEEA][AEEA][dQ]RP[NMeR][αMeL]SHKG[Oic][Nle][β3hP][Phe(4-Cl)]-OH (not fully specified (residue 10)) [SEQ ID NO: 631]
EC50 Human APJ Receptor (nM): 0.338
--
binder: Hexanoyl-[AC4Abu][AEEA][AEEA][hArg][dR]Q[hArg]P[dR][NMeL]SHKG[Pip′][Phe(4-I)]P[dBip]-OH [SEQ ID NO: 563]
EC50 Human APJ Receptor (nM): 4.3
--
binder: Palmitoyl-[γGlu][AEEA][AEEA][dQ]RP[NMeR][Cha]SHKG[Oic][Nle][Pip′][αMeF]-OH [SEQ ID NO: 609]
EC50 Human APJ Receptor (nM): 1.25
--
binder: Palmitoyl-[AC4Abu][AEEA][AEEA][dQ]RP[NMeR][Cha]SHKG[Pip][Nle]P[dTic]-OH (SMILES CCCCCCCCCCCCCCCC(=O)NCCC(C(=O)O)C(=O)NCCOCCOCC(=O)NCCOCCOCC(=O)N[C@H](CCC(N)=O)C(=O)N[C@@H](CCCNC(=N)N)C(=O)N1CCC[C@H]1C(=O)N(C)[C@@H](CCCNC(=N)N)C(=O)N[C@@H](CC1CCCCC1)C(=O)N[C@@H](CO)C(=O)N[C@@H](Cc1c[nH]cn1)C(=O)N[C@@H](CCCCN)C(=O)NCC(=O)N1CCCC[C@H]1C(=O)N[C@@H](CCCC)C(=O)N1CCC[C@H]1C(=O)N1Cc2ccccc2C[C@@H]1C(=O)O) [SEQ ID NO: 599]
EC50 Human APJ Receptor (nM): 0.44
--
binder: Palmitoyl-[γGlu][AEEA][AEEA][dQ]RP[NMeR][αMeL][BLeu]HKG[Oic][Nle][β3hP][Phe(4-Cl)]-OH [SEQ ID NO: 628]
EC50 Human APJ Receptor (nM): 0.309
--
binder: QRPRLSHKGPXPF ({H2}[MerPr](10K mPEG acetamide)QRP[NMeArg]LSHKGP[Nle]P[4-Cl-F]{COOH}) [SEQ ID NO: 115]
EC50 Human APJ Receptor (nM): 1.66
--
binder: Ac-[hArg][dR]QEP[dR][NMeL]SHKG[Oic][Phe(4-I)]P[dBip]-OH [SEQ ID NO: 77]
EC50 Human APJ Receptor (nM): 4.92
